FYI, the data here is from PubChem BioAssay AID1645866.

target: Ubiquitin carboxyl-terminal hydrolase 28 (Homo sapiens) (UniProt Q96RU2); assay: Concentration-response biochemical assay confirming initial hits as inhibitors of ubiquitin-specific protease 28 (AID 1645866); details: purified USP28, ubiquitin-rhodamine fluorescence, 30 min
Sequence (Q96RU2 whole entry, looked up): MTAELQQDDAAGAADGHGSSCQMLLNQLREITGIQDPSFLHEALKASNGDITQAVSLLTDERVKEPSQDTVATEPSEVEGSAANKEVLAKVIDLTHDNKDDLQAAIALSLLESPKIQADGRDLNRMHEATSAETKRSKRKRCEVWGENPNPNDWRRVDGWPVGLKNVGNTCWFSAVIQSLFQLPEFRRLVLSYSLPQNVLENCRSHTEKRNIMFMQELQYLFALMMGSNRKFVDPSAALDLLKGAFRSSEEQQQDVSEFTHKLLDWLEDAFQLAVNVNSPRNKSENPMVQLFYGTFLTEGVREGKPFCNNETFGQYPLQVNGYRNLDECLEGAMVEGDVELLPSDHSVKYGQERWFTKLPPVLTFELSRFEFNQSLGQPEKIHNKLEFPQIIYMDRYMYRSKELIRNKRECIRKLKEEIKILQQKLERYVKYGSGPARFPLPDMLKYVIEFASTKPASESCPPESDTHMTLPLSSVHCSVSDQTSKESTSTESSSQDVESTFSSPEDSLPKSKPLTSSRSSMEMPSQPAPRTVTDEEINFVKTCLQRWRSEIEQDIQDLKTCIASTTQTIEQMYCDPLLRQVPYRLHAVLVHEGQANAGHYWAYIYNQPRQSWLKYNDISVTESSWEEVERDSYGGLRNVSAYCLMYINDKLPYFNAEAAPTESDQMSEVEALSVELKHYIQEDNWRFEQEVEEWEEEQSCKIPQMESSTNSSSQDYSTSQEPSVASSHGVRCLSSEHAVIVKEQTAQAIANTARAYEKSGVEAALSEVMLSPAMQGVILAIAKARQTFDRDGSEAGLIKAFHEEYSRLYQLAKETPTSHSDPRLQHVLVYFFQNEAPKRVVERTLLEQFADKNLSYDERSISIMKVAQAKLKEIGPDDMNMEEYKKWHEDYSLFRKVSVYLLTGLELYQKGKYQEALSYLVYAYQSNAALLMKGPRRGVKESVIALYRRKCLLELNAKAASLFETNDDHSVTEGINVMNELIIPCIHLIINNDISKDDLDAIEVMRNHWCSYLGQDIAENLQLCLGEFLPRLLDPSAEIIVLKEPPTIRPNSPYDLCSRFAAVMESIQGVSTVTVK
Active and inactive are the calls of the source.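 How the source made its calls: active means in confirmatory dose-response testing, peak deubiquitinase inhibition of 30% or more; inactive means the rest.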
Write down one outcome, taken from active, inactive

compound: CCOc1ccc(C(=O)Cn2c(=O)n(CC3CCCO3)c(=O)c3cc(OC)c(OC)cc32)cc1Cl (stereo not given)
target-desc: Ubiquitin carboxyl-terminal hydrolase 28 (Homo sapiens) (UniProt Q96RU2)
group-label: active
//
compound: Cc1cc(N2CCOCC2)nc2ccc(NC(=O)CCC(=O)Nc3ccc(F)cc3)cc12
target-desc: Ubiquitin carboxyl-terminal hydrolase 28 (Homo sapiens) (UniProt Q96RU2)
group-label: active
//
compound: Cc1ccc2cccc(OCc3nnc(SCC(=O)c4ccc(Cl)cc4)n3C)c2n1
target-desc: Ubiquitin carboxyl-terminal hydrolase 28 (Homo sapiens) (UniProt Q96RU2)
group-label: active
//
compound: CN1CCN(c2ncnc3c2oc2ccc(Cl)cc23)CC1
target-desc: Ubiquitin carboxyl-terminal hydrolase 28 (Homo sapiens) (UniProt Q96RU2)
group-label: inactive
//
compound: CC(=O)N1CCOc2cc(S(=O)(=O)N3CCCC3c3cc(C)no3)ccc21 (stereo not given)
target-desc: Ubiquitin carboxyl-terminal hydrolase 28 (Homo sapiens) (UniProt Q96RU2)
group-label: active
//
compound: O=S(=O)(Cc1nnc(-c2ccccc2C(F)(F)F)o1)c1ccc(Cl)cc1
target-desc: Ubiquitin carboxyl-terminal hydrolase 28 (Homo sapiens) (UniProt Q96RU2)
group-label: inactive
//
compound: CC1CCCN1C(=O)c1ccn(-c2ccc3ccc(-c4cccnc4)cn23)n1 (stereo not given)
target-desc: Ubiquitin carboxyl-terminal hydrolase 28 (Homo sapiens) (UniProt Q96RU2)
group-label: inactive
//
compound: COc1ccc(OC)c(C2CC(=O)Nc3n[nH]c(-c4ccccc4)c32)c1 (stereo not given)
target-desc: Ubiquitin carboxyl-terminal hydrolase 28 (Homo sapiens) (UniProt Q96RU2)
group-label: active
//
compound: CCCC(O)CCCCCCCc1cc(O)cc(O)c1C(=O)OC(CCC)CCCCCCCc1cc(O)cc(O)c1 (stereo not given)
target-desc: Ubiquitin carboxyl-terminal hydrolase 28 (Homo sapiens) (UniProt Q96RU2)
group-label: active
//
compound: CC(=O)Nc1cc2cc(-n3cccc3)ccc2oc1=O
target-desc: Ubiquitin carboxyl-terminal hydrolase 28 (Homo sapiens) (UniProt Q96RU2)
group-label: active

Q. Query: recorded result category for `CC(C)(C)c1cc(C[C@@H]2C[C@H](NC(=O)N3CCOCC3)C2(C)C)no1` in this test
A. inactive

Q. Query: recorded result category for `COCC(=O)Nc1cc(F)c2nc(N3CCOCC3)ccc2c1` in this test
A. inactive

Q. Query: recorded result category for `O=C(Nc1ccccc1-c1nc2ccccc2[nH]1)c1sc2ccccc2c1Cl` in this test
A. active

Q. Query: recorded result category for `COc1ccccc1CNC(=O)c1ccc(CSc2nc3ccncc3n2Cc2ccccc2)cc1` in this test
A. active

Q. Query: recorded result category for `CCOC(=O)[C@@H]1[C@@H](c2ccccc2)CN2CCN(C(=O)c3cnccn3)C[C@H]12` in this test
A. inactive

Q. Query: recorded result category for `CCCc1nc2sc3c(NCc4ccco4)ncnc3c2c2c1CCC2` in this test
A. active

Q. Query: recorded result category for `CC(C)Cc1nc2sc3c(NCCN4CCOCC4)ncnc3c2c2c1CCC2` in this test
A. active

Q. Query: recorded result category for `COC1=CC(=O)c2c(O)c3c(c(C)c2C1=O)C[C@@]1(O)[C@H](O[C@H]2CC[C@H](O[C@H]4C[C@@](C)(O)[C@H](OC(=O)c5c(C)ccc(C)c5O)[C@H](C)O4)[C@@H](C)O2)C(=O)C(C(C)=O)=C(O)[C@@]1(O)C3=O` in this test
A. active

Q. Query: recorded result category for `COc1cc(NC(=O)COC(=O)Cn2cnc3ccccc32)cc(OC)c1` in this test
A. active

Q. Query: recorded result category for `COc1cccc(CNC(=O)C2=Cc3cccc(OC)c3OC2)c1` in this test
A. active
